IC50 for assorted compounds
Molecular target: hAR (human androgen receptor) (Homo sapiens, UniProt P10275)
Construct: made in house; host or cells: baculovirus/Sf9 insect cells (crude extract)
Experiment: Competitive hAR binding assay with 3H-DHT tracer

COMPOUND: CC(C)c1ccccc1Oc1ccc(C#N)c(Cl)c1
TARGET_OR_TEST_SYSTEM: hAR (human androgen receptor) (Homo sapiens, UniProt P10275)
IC50 / nM: 43

COMPOUND: CCOc1cc(C)ccc1Oc1ccc(C#N)c(Cl)c1
TARGET_OR_TEST_SYSTEM: hAR (human androgen receptor) (Homo sapiens, UniProt P10275)
IC50 / nM: 7

COMPOUND: CSc1ccccc1Oc1ccc(C#N)c(Cl)c1
TARGET_OR_TEST_SYSTEM: hAR (human androgen receptor) (Homo sapiens, UniProt P10275)
IC50 / nM: 47

COMPOUND: N#Cc1ccc(Oc2ccccc2C(F)(F)F)cc1Cl
TARGET_OR_TEST_SYSTEM: hAR (human androgen receptor) (Homo sapiens, UniProt P10275)
IC50 / nM: 34

COMPOUND: Cc1ccc(F)c(Oc2ccc(C#N)cc2Cl)c1F
TARGET_OR_TEST_SYSTEM: hAR (human androgen receptor) (Homo sapiens, UniProt P10275)
IC50 / nM: 59

COMPOUND: Cc1cc(C)c(Oc2ccc(C#N)c(Cl)c2)c(C)c1
TARGET_OR_TEST_SYSTEM: hAR (human androgen receptor) (Homo sapiens, UniProt P10275)
IC50 / nM: 22

COMPOUND: Cc1cc(C)c(Oc2ccc(C#N)cc2Cl)c(C)c1
TARGET_OR_TEST_SYSTEM: hAR (human androgen receptor) (Homo sapiens, UniProt P10275)
IC50 / nM: 16

COMPOUND: C=CCc1ccccc1Oc1ccc(C#N)c(C(F)(F)F)c1
TARGET_OR_TEST_SYSTEM: hAR (human androgen receptor) (Homo sapiens, UniProt P10275)
IC50 / nM: 82

COMPOUND: C=CCc1cccc(C)c1Oc1ccc(C#N)c(Cl)c1
TARGET_OR_TEST_SYSTEM: hAR (human androgen receptor) (Homo sapiens, UniProt P10275)
IC50 / nM: 79

COMPOUND: COc1cc(F)ccc1Oc1ccc(C#N)c(Cl)c1
TARGET_OR_TEST_SYSTEM: hAR (human androgen receptor) (Homo sapiens, UniProt P10275)
IC50 / nM: 6

###

Target: hAR (human androgen receptor) (Homo sapiens, UniProt P10275)
Construct: made in house; host or cells: baculovirus/Sf9 insect cells (crude extract)
Sequence (P10275 1-920): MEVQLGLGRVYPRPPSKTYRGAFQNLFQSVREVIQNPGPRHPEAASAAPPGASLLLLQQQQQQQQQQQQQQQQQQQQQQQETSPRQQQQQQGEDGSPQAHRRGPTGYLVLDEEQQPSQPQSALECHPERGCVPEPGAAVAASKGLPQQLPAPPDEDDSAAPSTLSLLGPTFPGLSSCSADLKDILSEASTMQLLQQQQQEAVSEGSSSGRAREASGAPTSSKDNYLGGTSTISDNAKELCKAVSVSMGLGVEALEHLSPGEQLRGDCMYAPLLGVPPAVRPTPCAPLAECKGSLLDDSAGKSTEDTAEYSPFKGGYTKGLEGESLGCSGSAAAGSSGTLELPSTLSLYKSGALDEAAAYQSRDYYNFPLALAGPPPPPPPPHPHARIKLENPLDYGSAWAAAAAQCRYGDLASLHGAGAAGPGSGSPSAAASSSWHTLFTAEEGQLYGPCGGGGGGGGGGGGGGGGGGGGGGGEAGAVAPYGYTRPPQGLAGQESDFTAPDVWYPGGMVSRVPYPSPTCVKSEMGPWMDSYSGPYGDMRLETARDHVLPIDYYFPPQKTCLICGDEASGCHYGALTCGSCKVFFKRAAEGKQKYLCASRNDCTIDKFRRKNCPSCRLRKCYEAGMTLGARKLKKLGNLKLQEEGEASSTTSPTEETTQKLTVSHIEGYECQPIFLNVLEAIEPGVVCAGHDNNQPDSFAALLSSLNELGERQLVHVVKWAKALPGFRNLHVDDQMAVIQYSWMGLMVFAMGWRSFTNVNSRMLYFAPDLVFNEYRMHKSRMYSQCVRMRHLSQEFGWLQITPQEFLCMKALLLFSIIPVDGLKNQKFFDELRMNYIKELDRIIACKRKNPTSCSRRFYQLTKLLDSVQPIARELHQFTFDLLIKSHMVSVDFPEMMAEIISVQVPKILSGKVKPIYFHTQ
Assay: Competitive hAR binding assay with 3H-DHT tracer
Details: baculovirus/Sf9 hAR extract, 1 nM 3H-DHT, one hour at 4° C; mean of multiple tests; read-out: AR Binding IC50
Protocol: The description below describes how the assay was carried out. Competitive binding analysis was performed on baculovirus/Sf9 generated hAR extracts in the presence or absence of different concentrations of test agent and a fixed concentration of ^3H-dihydrotestosterone (3H-DHT) as tracer. […] Compound binding affinity to the hAR is expressed as the concentration of compound at which one half of the maximum binding is inhibited.
pIC50: −log10 of the molar value.
pIC50 for assorted compounds

COMPOUND: CCOc1cc(C)ccc1Oc1ccc(C#N)cc1Cl [Example 30]
pIC50: 7.38
--
COMPOUND: CCCC(=O)Nc1ccc(Oc2ccc(C#N)c(Cl)c2)cc1 [Example 61]
pIC50: 6.79
--
COMPOUND: Cc1ccc(C(C)C)c(Oc2ccc(C#N)cc2Cl)c1 [Example 14]
pIC50: 6.43
--
COMPOUND: N#Cc1ccc(Oc2ccc(O)cc2)cc1C(F)(F)F [Example 80]
pIC50: 6.68
--
COMPOUND: CC(=O)c1ccccc1Oc1ccc(C#N)c(C(F)(F)F)c1 [Example 88]
pIC50: 6.56
--
COMPOUND: N#Cc1ccc(Oc2ccccc2C(N)=O)cc1Cl [Example 8, 2-(3-Chloro-4-cyano-phenoxy)-benzamide]
pIC50: 6.65
--
COMPOUND: Cc1cccc(Oc2ccc(C#N)cc2Cl)c1 [Example 28, 3-Chloro-4-m-tolyloxy-benzonitrile]
pIC50: 6.39
--
COMPOUND: N#Cc1ccc(Oc2ccc(C#N)c(Cl)c2)cc1 [Example 67, 2-Chloro-(4-cyano-phenoxy)-benzonitrile]
pIC50: 6.64
--
COMPOUND: COc1cc(F)ccc1Oc1ccc(C#N)cc1Cl [Example 29]
pIC50: 6.87
--
COMPOUND: CC(O)c1cc(F)ccc1Oc1ccc(C#N)c(C(F)(F)F)c1 (stereo not shown) [Example 119]
pIC50: 6.55
--
COMPOUND: COc1cccc(Oc2ccc(C#N)c(Cl)c2)c1 [Example 37]
pIC50: 6.94
--
COMPOUND: CCOc1ccccc1Oc1ccc(C#N)cc1Cl [Example 71]
pIC50: 6.52
--
COMPOUND: COc1cc(C#N)ccc1Oc1ccccc1C [Example 125, 3-Methoxy-4-o-tolyloxy-benzonitrile]
pIC50: 6.36
--
COMPOUND: CC(=O)c1cc(F)ccc1Oc1ccc(C#N)c(C(F)(F)F)c1 [Example 120]
pIC50: 6.65
--
COMPOUND: N#Cc1ccc(Oc2ccccc2C(F)(F)F)c(Cl)c1 [Example 20]
pIC50: 6.60
--
COMPOUND: CSc1ccccc1Oc1ccc(C#N)cc1Cl [Example 5]
pIC50: 6.51
